The origin of these recorded values is patent US20100061982A1.

Please respond with reported pIC50 for every item in the list.
Test target: PI3K alpha (Homo sapiens, UniProt P42336)
Sequence (P42336 whole entry, species assumed): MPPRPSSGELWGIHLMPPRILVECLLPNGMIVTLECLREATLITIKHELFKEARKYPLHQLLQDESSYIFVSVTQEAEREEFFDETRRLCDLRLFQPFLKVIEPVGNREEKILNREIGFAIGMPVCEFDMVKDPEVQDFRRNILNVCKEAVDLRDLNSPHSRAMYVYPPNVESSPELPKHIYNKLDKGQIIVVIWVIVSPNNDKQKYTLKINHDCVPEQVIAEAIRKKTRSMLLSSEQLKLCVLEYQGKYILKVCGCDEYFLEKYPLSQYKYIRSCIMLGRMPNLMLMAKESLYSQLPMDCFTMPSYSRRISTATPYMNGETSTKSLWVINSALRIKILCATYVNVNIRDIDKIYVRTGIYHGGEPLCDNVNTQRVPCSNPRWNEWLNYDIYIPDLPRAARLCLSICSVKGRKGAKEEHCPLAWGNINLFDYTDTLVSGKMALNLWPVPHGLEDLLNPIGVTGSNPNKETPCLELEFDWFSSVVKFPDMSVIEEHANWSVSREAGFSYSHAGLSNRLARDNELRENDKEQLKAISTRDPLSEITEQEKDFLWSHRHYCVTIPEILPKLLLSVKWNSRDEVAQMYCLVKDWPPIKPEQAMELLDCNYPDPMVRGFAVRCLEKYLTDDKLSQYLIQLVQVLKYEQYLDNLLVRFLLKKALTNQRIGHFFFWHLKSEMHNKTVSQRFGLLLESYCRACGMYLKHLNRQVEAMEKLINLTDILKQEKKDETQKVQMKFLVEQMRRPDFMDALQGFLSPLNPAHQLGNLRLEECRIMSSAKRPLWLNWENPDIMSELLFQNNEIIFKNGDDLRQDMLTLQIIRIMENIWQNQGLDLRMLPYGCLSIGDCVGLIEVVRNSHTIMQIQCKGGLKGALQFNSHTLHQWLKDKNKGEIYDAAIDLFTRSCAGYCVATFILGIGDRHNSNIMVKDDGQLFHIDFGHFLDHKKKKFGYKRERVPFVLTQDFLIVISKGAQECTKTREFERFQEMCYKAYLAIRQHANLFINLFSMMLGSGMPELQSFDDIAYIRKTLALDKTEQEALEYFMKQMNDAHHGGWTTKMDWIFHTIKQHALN
Sequence (P27986 whole entry partner, species assumed): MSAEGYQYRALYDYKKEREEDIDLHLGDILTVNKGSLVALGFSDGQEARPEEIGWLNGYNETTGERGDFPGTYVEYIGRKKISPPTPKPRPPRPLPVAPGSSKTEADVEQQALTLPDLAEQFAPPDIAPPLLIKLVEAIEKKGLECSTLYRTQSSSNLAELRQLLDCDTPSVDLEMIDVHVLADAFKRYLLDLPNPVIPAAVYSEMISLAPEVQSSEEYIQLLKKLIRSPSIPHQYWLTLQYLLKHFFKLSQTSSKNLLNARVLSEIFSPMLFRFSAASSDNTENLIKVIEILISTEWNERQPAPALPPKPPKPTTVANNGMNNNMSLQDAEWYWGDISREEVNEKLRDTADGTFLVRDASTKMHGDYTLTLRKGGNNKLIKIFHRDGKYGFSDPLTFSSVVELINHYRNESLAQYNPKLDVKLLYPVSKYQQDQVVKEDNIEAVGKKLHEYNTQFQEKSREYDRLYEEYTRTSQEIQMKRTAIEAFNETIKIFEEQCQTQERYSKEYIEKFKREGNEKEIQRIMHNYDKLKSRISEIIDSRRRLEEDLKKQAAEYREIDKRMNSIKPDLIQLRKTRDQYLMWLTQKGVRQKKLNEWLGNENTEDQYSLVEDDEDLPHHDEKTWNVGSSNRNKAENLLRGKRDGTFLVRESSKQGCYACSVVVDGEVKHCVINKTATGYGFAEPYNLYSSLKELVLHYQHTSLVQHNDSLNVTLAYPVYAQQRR
Assay info: PI3K-alpha Fluorescence Polarization Assay
Format: biochemical
Hey, just a heads up that pIC50 is the negative log base 10 of the concentration in molar.

What value of pIC50 has been recorded for this entry: `COc1ccc2[nH]c(-c3ccccc3)c(/C=C3\Oc4cc(OC(=O)N(C)C)cc(OC(=O)N(C)C)c4C3=O)c2c1`
5.65

What value of pIC50 has been recorded for this entry: `COc1ccc2c(c1)c(/C=C1\Oc3cc(OC(=O)N(C(C)C)C(C)C)cc(OC(=O)N(C(C)C)C(C)C)c3C1=O)c(C)n2CCN1CCN(C)CC1`
5.02

----------
Assay info: Microsome Stability (15 min), human
Format: in vitro ADME
Condition summary: microsomes, Phase I (NADPH), read-out: Microsome Stability (15 min) T ½ Phase I human
Please respond with reported half-life for every item in the list.
Give the value in min but do not write min after it.

What value of half-life has been recorded for this entry: CN(C)C(=O)Oc1cc(OC(=O)N(C)C)c2c(c1)O/C(=C\c1cn(C)c3cccc(-c4ccccc4)c13)C2=O [Example 48]
25

What value of half-life has been recorded for this entry: COc1ccc2c(c1)c(/C=C1\Oc3cc(OC(=O)N(C(C)C)C(C)C)cc(OC(=O)N(C(C)C)C(C)C)c3C1=O)c(C)n2CCN1CCN(C)CC1 [Example 28]
8

What value of half-life has been recorded for this entry: `COc1ccc2c(c1)c(/C=C1\Oc3cc(O)cc(O)c3C1=O)c(C)n2CCN1CCN(C)CC1`
11

What value of half-life has been recorded for this entry: COc1ccc2[nH]c(-c3ccccc3)c(/C=C3\Oc4cc(OC(=O)Oc5ccccc5)cc(OC(=O)Oc5ccccc5)c4C3=O)c2c1 [Example 23]
6

What value of half-life has been recorded for this entry: COc1ccc2c(c1)c(/C=C1\Oc3cc(OC(=O)c4ccccc4)cc(OC(=O)c4ccccc4)c3C1=O)cn2CCCN(C)C [Example 24]
22

What value of half-life has been recorded for this entry: COc1ccc2[nH]c(-c3ccccc3)c(/C=C3\Oc4cc(OC(=O)Oc5ccccc5)ccc4C3=O)c2c1 [Example 19]
28

What value of half-life has been recorded for this entry: COc1ccc2[nH]c(-c3ccccc3)c(/C=C3\Oc4cc(OC(C)=O)cc(OC(C)=O)c4C3=O)c2c1 [Example 3]
12

What value of half-life has been recorded for this entry: COc1ccc2[nH]c(-c3ccccc3)c(/C=C3\Oc4cc(OC(=O)OC(C)C)cc(OC(=O)OC(C)C)c4C3=O)c2c1 [Example 7]
5

What value of half-life has been recorded for this entry: `Cn1cc(/C=C2\Oc3cccc(O)c3C2=O)c2c(N3CC4CCC(C3)O4)ccnc21`
28

What value of half-life has been recorded for this entry: COc1ccc2[nH]c(-c3ccccc3)c(/C=C3\Oc4cc(OC(=O)N(c5ccccc5)c5ccccc5)cc(OC(=O)N(c5ccccc5)c5ccccc5)c4C3=O)c2c1 [Example 11]
23

What value of half-life has been recorded for this entry: CN(C)C(=O)Oc1cc(OC(=O)N(C)C)c2c(c1)O/C(=C\c1cn(C)c3nccc(-c4ccccc4)c13)C2=O [Example 43]
11

What value of half-life has been recorded for this entry: COc1ccc2c(c1)c(/C=C1\Oc3cc(OC(=O)C(C)(C)C)cc(OC(=O)C(C)(C)C)c3C1=O)cn2CCCN(C)C [Example 14]
21

----------
Assay info: Buffer Stability (37° C.)
Condition summary: pH 7.4
Measured quantity: Buffer Stability (37° C.) % Remaining (at 16-23 hours) pH 7.4 (%)
Give the value in % but do not write % after it.

What value of Buffer Stability (37° C.) % Remaining (at 16-23 hours) pH 7.4 has been recorded for this entry: `COc1ccc2c(c1)c(/C=C1\Oc3cc(OC(=O)N(C)C)cc(OC(=O)N(C)C)c3C1=O)c(C)n2CCN1CCN(C)CC1`
100

What value of Buffer Stability (37° C.) % Remaining (at 16-23 hours) pH 7.4 has been recorded for this entry: `COc1ccc2[nH]c(-c3ccccc3)c(/C=C3\Oc4cc(OC(=O)Oc5ccccc5)ccc4C3=O)c2c1`
54

What value of Buffer Stability (37° C.) % Remaining (at 16-23 hours) pH 7.4 has been recorded for this entry: `COc1ccc2[nH]c(-c3ccccc3)c(/C=C3\Oc4cc(OC(=O)OC(C)C)cc(OC(=O)OC(C)C)c4C3=O)c2c1`
16

What value of Buffer Stability (37° C.) % Remaining (at 16-23 hours) pH 7.4 has been recorded for this entry: `CN(C)C(=O)Oc1cc(OC(=O)N(C)C)c2c(c1)O/C(=C\c1cn(C)c3cccc(-c4ccccc4)c13)C2=O`
100

What value of Buffer Stability (37° C.) % Remaining (at 16-23 hours) pH 7.4 has been recorded for this entry: `COc1ccc2[nH]c(-c3ccccc3)c(/C=C3\Oc4cc(OC(=O)N(C)C)ccc4C3=O)c2c1`
100

What value of Buffer Stability (37° C.) % Remaining (at 16-23 hours) pH 7.4 has been recorded for this entry: `COc1ccc2[nH]c(-c3ccccc3)c(/C=C3\Oc4cc(OC(=O)N(c5ccccc5)c5ccccc5)ccc4C3=O)c2c1`
100

What value of Buffer Stability (37° C.) % Remaining (at 16-23 hours) pH 7.4 has been recorded for this entry: `COc1ccc2c(c1)c(/C=C1\Oc3cc(OC(=O)N(C(C)C)C(C)C)cc(OC(=O)N(C(C)C)C(C)C)c3C1=O)cn2CCCN(C)C`
100

----------
Please respond with reported Buffer Stability (37° C.) % Remaining (at 16-23 hours) SGF for every item in the list.
Assay info: Buffer Stability (37° C.)
Condition summary: SGF
Give the value in % but do not write % after it.

What value of Buffer Stability (37° C.) % Remaining (at 16-23 hours) SGF has been recorded for this entry: `COc1ccc2[nH]c(-c3ccccc3)c(/C=C3\Oc4cc(OC(=O)N(c5ccccc5)c5ccccc5)cc(OC(=O)N(c5ccccc5)c5ccccc5)c4C3=O)c2c1`
100

What value of Buffer Stability (37° C.) % Remaining (at 16-23 hours) SGF has been recorded for this entry: `COc1ccc2c(c1)c(/C=C1\Oc3cc(OC(=O)OC(C)C)cc(OC(=O)OC(C)C)c3C1=O)cn2CCCN(C)C`
94

What value of Buffer Stability (37° C.) % Remaining (at 16-23 hours) SGF has been recorded for this entry: `CN(C)C(=O)Oc1cccc2c1C(=O)/C(=C/c1cn(C)c3nccc(N4CC5CCC(C4)O5)c13)O2`
102

What value of Buffer Stability (37° C.) % Remaining (at 16-23 hours) SGF has been recorded for this entry: `COc1ccc2[nH]c(-c3ccccc3)c(/C=C3\Oc4cc(OC(C)=O)cc(OC(C)=O)c4C3=O)c2c1`
66

What value of Buffer Stability (37° C.) % Remaining (at 16-23 hours) SGF has been recorded for this entry: `COc1ccc2c(c1)c(/C=C1\Oc3cc(OC(=O)N(C)c4ccccc4)cc(OC(=O)N(C)c4ccccc4)c3C1=O)cn2CCCN(C)C`
100

What value of Buffer Stability (37° C.) % Remaining (at 16-23 hours) SGF has been recorded for this entry: `COc1ccc2c(c1)c(/C=C1\Oc3cc(OC(=O)CC(C)C)cc(OC(=O)CC(C)C)c3C1=O)cn2CCCN(C)C`
77

What value of Buffer Stability (37° C.) % Remaining (at 16-23 hours) SGF has been recorded for this entry: `COc1ccc2[nH]c(-c3ccccc3)c(/C=C3\Oc4cc(OC(=O)Oc5ccccc5)ccc4C3=O)c2c1`
106

----------
Assay info: Buffer Stability (37° C.)
Condition summary: pH 6.6
Please respond with reported Buffer Stability (37° C.) % Remaining (at 16-23 hours) pH 6.6 for every item in the list.
Give the value in % but do not write % after it.

What value of Buffer Stability (37° C.) % Remaining (at 16-23 hours) pH 6.6 has been recorded for this entry: `COc1ccc2[nH]c(-c3ccccc3)c(/C=C3\Oc4cc(OC(=O)N(c5ccccc5)c5ccccc5)ccc4C3=O)c2c1`
100

What value of Buffer Stability (37° C.) % Remaining (at 16-23 hours) pH 6.6 has been recorded for this entry: `COc1ccc2[nH]c(-c3ccccc3)c(/C=C3\Oc4cc(OC(C)=O)cc(OC(C)=O)c4C3=O)c2c1`
0

What value of Buffer Stability (37° C.) % Remaining (at 16-23 hours) pH 6.6 has been recorded for this entry: `COc1ccc2[nH]c(-c3ccccc3)c(/C=C3\Oc4cc(OC(=O)N(c5ccccc5)c5ccccc5)cc(OC(=O)N(c5ccccc5)c5ccccc5)c4C3=O)c2c1`
100

What value of Buffer Stability (37° C.) % Remaining (at 16-23 hours) pH 6.6 has been recorded for this entry: `COc1ccc2[nH]c(-c3ccccc3)c(C=C3Oc4cc(O)cc(O)c4C3=O)c2c1`
83

What value of Buffer Stability (37° C.) % Remaining (at 16-23 hours) pH 6.6 has been recorded for this entry: `COc1ccc2c(c1)c(/C=C1\Oc3cc(OC(=O)N(C)C)cc(OC(=O)N(C)C)c3C1=O)c(C)n2CCN1CCN(C)CC1`
100

What value of Buffer Stability (37° C.) % Remaining (at 16-23 hours) pH 6.6 has been recorded for this entry: `COc1ccc2[nH]c(-c3ccccc3)c(/C=C3\Oc4cc(OC(=O)Oc5ccccc5)cc(OC(=O)Oc5ccccc5)c4C3=O)c2c1`
0

What value of Buffer Stability (37° C.) % Remaining (at 16-23 hours) pH 6.6 has been recorded for this entry: `COc1ccc2c(c1)c(/C=C1\Oc3cc(OC(=O)c4ccccc4)cc(OC(=O)c4ccccc4)c3C1=O)cn2CCCN(C)C`
50
